system: SNB-19 CNS; assay: NCI-60 one-dose screen, 48 h; conditions: 10 µM unless noted
This is part of a sample that, as a whole, favours compounds with a hit. Of some 83,000 tested, about 20% had one in any assay. Activity calls are given as the source filed them. The calls were made as follows: active = growth percent below 10; inactive = the rest.
Hi there, use one of these labels in your reply, thanks! 1 for active, 0 for inactive

{"columns": ["COMPOUND", "ASSAYED TARGET", "CLASSIFICATION"],
 "data": [
  ["Cc1ccc(N2C(=O)/C(=C/C=C/c3ccco3)SC2=S)cc1", "SNB-19 CNS", 0],
  ["CCOC(=O)c1c(NC(=O)c2ccccc2C(F)(F)F)sc2c1CCC(=O)C2", "SNB-19 CNS", 0],
  ["Cn1cc(-c2nnc(N)nc2-c2c[nH]c3ccc(F)cc23)c2cc(F)ccc21", "SNB-19 CNS", 0],
  ["Cc1ccc(NC(=O)CNc2cc(C(N)=O)cc(F)c2C)c(Cl)c1", "SNB-19 CNS", 0],
  ["COc1cc2oc(-c3cccc(C(=O)N[C@@H](CC(C)C)C(=O)OC(C)(C)C)c3)cc(=O)c2c(OC)c1OC", "SNB-19 CNS", 0]
]}

Next up:
Query: Outcome? O=S(=O)(NCCCNc1nccc(-c2[nH]c(-c3ccccc3)nc2-c2ccc(Cl)c(O)c2)n1)c1ccc(Br)cc1
Response: 0

----------
tested on: EKVX NSCLC; experiment: NCI-60 one-dose screen, 48 h; details: 10 µM unless noted
About 83,000 compounds went through this panel and 20% of them were active in at least one assay; those are over-represented in the sample as a whole. Calls of active or inactive are those of the source. The calls were made as follows: active = growth percent below 10; inactive = the rest.
The categories you may choose from are active, inactive

Record excerpt, results attached:
{"columns": ["MOLECULE", "CLASSIFICATION"],
 "data": [
  ["CS(=O)(=O)Nc1cc(-c2ccc3ncc(C#N)c(NCc4ccccc4F)c3c2)cnc1Cl", "active"],
  ["COc1ccc([C@@H]2[C@@H](O)C(=O)N2c2cc(OC)c(OC)c(OC)c2)cc1F", "inactive"],
  ["CCOc1ccc(NC2=C(Cl)C(=O)c3nc(C)ccc3C2=O)cc1", "active"],
  ["CCN(CC)c1ccc2c(c1)Oc1nc(N)c(C#N)c(N)c1C2Sc1ccc(F)cc1 (centres undefined)", "active"],
  ["CNCc1cccc2c1OCCCCCCC(C)(O)CC(C)(C)S(=O)(=O)c1ccc(cc1)-c1cnc(N)c(n1)C(=O)N2 (centres undefined)", "inactive"],
  ["CCNC(=O)N1CCc2cc(OC)c(OCCc3ccc(OC)cc3)cc2C1c1ccc([N+](=O)[O-])cc1C (centres undefined)", "inactive"],
  ["N/C(=N\\C(N)=N\\c1nc2ccccc2s1)c1ccc2ccccc2c1", "inactive"],
  ["Cc1ccc(-c2cc3nc(C(Cl)Cl)nc(C)n3n2)cc1", "inactive"]
]}

Query: Write down the call the test reported for this molecule. Item: COc1ccc(C2CC(c3cccc(Nc4nc(Cl)nc5cc(OC)c(OC)cc45)c3)=Nc3c(N)nc(N)nc3N2)cc1 (centres undefined)
Response: inactive

----------
test system: HOP-62 NSCLC; test: NCI-60 one-dose screen, 48 h; conditions: 10 µM unless noted
About 83,000 compounds went through this panel and 20% of them were active in at least one assay; those are over-represented in the sample as a whole. Active and inactive are the calls of the source. The calls were made as follows: active = growth percent below 10; inactive = the rest.
Select the correct class. Options are 1.0 (active), 0.0 (inactive) and nothing else.

For orientation, consider the following solved cases.
{"columns": ["SMILES ENTRY", "CLASSIFICATION"],
 "data": [
  ["O=C1/C(=C/C=C/c2ccco2)SC(=S)N1C1CCCCC1", 0.0],
  ["Nc1nc(Nc2ccccc2SSc2ccccc2Nc2nc(N)nc(-c3cccc(Br)c3)n2)nc(-c2cccc(Br)c2)n1", 0.0],
  ["CCOc1cccc(-c2nc3sccn3c2-c2ccnc(S(C)(=O)=O)n2)c1", 0.0],
  ["C=CCn1c(SCC(=O)Nc2ccc(C(=O)/C=C/c3ccc(C)cc3)cc2)nnc1-c1c[nH]c2ccccc12", 0.0],
  ["COc1cc(-c2nn(C(C)(C)C)cc2-c2ccnc(NCCCNS(=O)(=O)c3ccc(C)cc3)n2)ccc1Cl", 0.0],
  ["CCCCCCCn1cc2c(N[C@H](C)c3ccccc3)ncnc2n1", 0.0],
  ["CCN(CC)CCn1c2ccc(O)cc2c2sc3cc(OC)ccc3c(=O)c21", 0.0],
  ["Cc1cc2nc(C(Cl)Cl)nc(-c3cccs3)n2n1", 1.0]
]}

Now look at this one.
Query: Entry NS(=O)(=O)c1ccc(Nc2nc(N/N=C/c3c[nH]c4ccccc34)nc(Nc3ccccc3)n2)cc1 : call = ?
Response: 0.0

----------
system: UACC-62 melanoma; experiment: NCI-60 one-dose screen, 48 h (100 = growth as untreated, 0 = no growth, -100 = all killed); conditions: 10 µM unless noted
Compounds without any hit were thinned out: in the full panel of roughly 83,000, 20% have a hit.
Recorded measurements of growth, one per entry
Answer format: numeric, % implied, no suffix.

{"columns": ["MOLECULE", "ASSAYED TARGET", "UNITS SYMBOL", "ASSAY RESULT"],
 "data": [
  ["COc1ccc(NC2=C(Cl)C(=O)c3nc(C)ccc3C2=O)cc1OC", "UACC-62 melanoma", "%", 71.8]
]}

Query: Can you look up growth on UACC-62 melanoma for COc1cccc(C(=O)Nc2cccc(C#Cc3cccc4[nH]nc(N)c34)c2)c1 ?
Response: 57.6

Query: Report growth for CS(=O)(=O)c1ncc(-c2ccccc2)cn1 tested on UACC-62 melanoma.
Response: 89

Query: GET /values?readout=growth&system=UACC-62 melanoma&item= C#Cc1nc(C(=O)NCCC(=O)Nc2ccc(NC(=O)c3ccc(/C=C/C(=O)c4nccn4C)cc3)cc2)cs1
Response: 38.6

Query: What value of growth on UACC-62 melanoma does COc1cc2nc(Cl)nc(Nc3cccc(C4=Nc5c(N)nc(N)nc5NC(c5ccc(Br)cc5)C4)c3)c2cc1OC (stereo not given) have?
Response: 107

----------
tested on: NCI-H23 lung; assay: NCI-60 one-dose screen, 48 h (100 = growth as untreated, 0 = no growth, -100 = all killed); conditions: 10 µM unless noted
The panel holds about 83,000 compounds, 20% with a hit somewhere; the sample as a whole holds those more often.
One threshold, 90%, splits the recorded growth values: lower ones are 1.0, equal or higher ones are 0.0.

Some solved entries appear below for comparison.
{"columns": ["COMPOUND", "ASSAYED TARGET", "CLASSIFICATION"],
 "data": [
  ["Fc1ccc(-c2cc3nc(C(Cl)Cl)nc(-c4ccco4)n3n2)cc1", "NCI-H23 lung", 1.0],
  ["CCCn1cnc2c(c1=N)C(c1ccc(OC)cc1)c1sc3c(CC)cccc3c1O2 (configuration not stated)", "NCI-H23 lung", 1.0],
  ["C[C@@H]1C[C@H]2C(=O)O[C@@H](C)C(NC(=O)[C@H](Cc3cc(F)cc(F)c3)NC(=O)Nc3ccc(Cl)cc3F)C(=O)N3CCC[C@H]3C(=O)N3CCCC[C@H]3C(=O)N[C@@H](CO)C(=O)N2C1 (some centres not stated)", "NCI-H23 lung", 1.0],
  ["COC(=O)C(Cc1ccccc1)Nc1nc(NC(Cc2ccccc2)C(=O)OC)nc(N2CCOCC2)n1 (configuration not stated)", "NCI-H23 lung", 0.0],
  ["CN1CCN(c2nc(-c3csc(-c4ccccc4)n3)cc3ccccc23)CC1", "NCI-H23 lung", 1.0],
  ["NS(=O)(=O)c1ccc(-n2cc(CN3CCNCC3)nn2)cc1", "NCI-H23 lung", 0.0],
  ["COc1ccc(Oc2ccc(/C=N/NC(=O)CSc3nc4ccccc4c(=O)n3-c3ccc(Cl)cc3)cc2)cc1", "NCI-H23 lung", 1.0],
  ["N#Cc1cccc(CN2CCC3=C(C2)C(=O)N(Cc2ccc(Cl)cc2)C2=NCCCN23)c1", "NCI-H23 lung", 1.0]
]}

Query: Consider the compound NC(N)=Nc1ccc(Oc2cccc(NC(N)=Nc3ccc(Cl)c(C(F)(F)F)c3)c2)cc1 . Is its growth strictly less than 90%?
Response: 1.0

Query: Lab log: compare recorded growth with 90%; is it strictly lower for CCN1CCN(Cc2cn(-c3ccc(S(N)(=O)=O)cc3)nn2)CC1 ?
Response: 0.0

Query: For C[C@@H](Nc1ncnc2ccc(-c3cnc(Cl)c(NS(C)(=O)=O)c3)cc12)c1ccccc1 , is the recorded growth below the cut-off of 90%?
Response: 1.0

Query: A record lists COc1ccc(C(=O)c2c(N)c(C#N)cn2-c2ccccc2OC)cc1 . Is its growth below 90%?
Response: 1.0

Query: Please let me know if NS(=O)(=O)c1ccc(-n2cc(CN3CCCCC3)nn2)cc1 shows growth below 90%.
Response: 0.0

Query: Is growth of NC(N)=Nc1ccc(Oc2cccc(NC(N)=Nc3ccc(Cl)c(C(F)(F)F)c3)c2)cn1 strictly below 90%?
Response: 1.0

Query: growth under 90%? Item: CNC(=O)c1c(NC(=O)c2cccc(C(F)(F)F)c2F)sc2c1CCC(=O)C2
Response: 1.0

Query: API: query returns whether the compound falls strictly under 90% in growth. Query: NS(=O)(=O)c1ccc(-n2cc(-c3cccc(NC(=O)c4ccc(N5CCOCC5)c(C(F)(F)F)c4)c3)nn2)cc1
Response: 1.0

Query: Problem: For the compound CNC(=O)c1cc(-n2ccc3cc(NC(=O)Nc4ccc(N5CCOCC5)c(C(F)(F)F)c4)ccc32)ccn1 , is growth under 90%?
Response: 1.0

Query: is_below(growth, 90%) for C#CCNC1CCC(c2csc(C#C)n2)=C1C (configuration not stated) ?
Response: 1.0

Query: Decide: growth of CS(=O)(=O)Nc1cc(-c2ccc3ncc(C#N)c(NCc4ccccc4O)c3c2)cnc1Cl strictly below 90%?
Response: 1.0

Query: Find out if reported growth for CN1CCN(c2ccc(/C=N/n3cnc4oc(-c5ccccc5)cc4c3=N)cc2)CC1 is less than 90%
Response: 0.0

Query: # check: growth < 90% for Cc1nn(-c2ccccc2)c2ncnc(N/N=C/c3ccccc3O)c12
Response: 1.0
